Data origin: ChEMBL document CHEMBL3785022

Assay: Renal clearance in lymphoma patient (7 patients)
Details: human, in vivo

{"compound": "O=P1(N(CCCl)CCCl)NCCCO1 (stereo unspecified) [CYCLOPHOSPHAMIDE ANHYDROUS]", "unit of measure": "mL/h/kg", "CL renal": 4.8}

----------
Assay: clinical
Details: human, in vivo, iv, 11.3 mg/kg
Description: Clearance in lymphoma patient at 11.3 mg/kg, iv by one compartment open model
value type: clearance (mL/min/kg)

{"compound": "O=P1(N(CCCl)CCCl)NCCCO1 (stereo unspecified) [CYCLOPHOSPHAMIDE ANHYDROUS]", "unit of measure": "mL/min/kg", "number": 1.62}
